Test system: SF-295
Assay: NCI tumour cell line growth inhibition, 48 h
Activity calls are given as the source filed them. Cut-off read from the data, not from the text of the source: active = GI50 up to about 1.1 µM and inactive = higher.
Please state which outcome applies, choosing from t = active, f = inactive

Would you please look over these solved cases?
{"columns": ["MOLECULE", "CATEGORY LABEL"],
 "data": [
  ["CC(C)N(C(=O)C12C3C4C1C1C2C3C41C(N)=O)C(C)C (stereo not drawn)", "f"],
  ["CC(C)[C@H]1CO[C@@H]2O[C@H](C)CC(=O)N21", "f"],
  ["O=C1Nc2ccccc2C1S(=O)(=O)c1ccccc1 (stereo not drawn)", "f"]
]}

Query block: Any idea what this test logged for Cc1nn(C(=O)Cc2ccccc2)c2c1C(c1ccc(O)cc1O)SC(=N)N2 (stereo not drawn) ?
Result block: f

Query block: Tell me the assay call for CC(C)c1cc(C(C)C)c(P2(=O)CC3C(Cl)(Cl)C3(C)C2)c(C(C)C)c1 (stereo not drawn) please.
Result block: f
